Overview of recorded solubility thermodynamic for various compounds
- experiment: Saturation (thermodynamic) solubility in buffer, FaSSIF, FeSSIF
- Format: physicochemical
- condition.info: thermodynamic from solid; FeSSIF pH 5.5; read-out: Thermodynamic Solubility in FeSSIF (pH 5.5)
Write it as a number; the unit mg/mL goes unstated.

Worked examples follow.
compound | unit.tag | numeric.value
Cc1nc([C@](C)(CC2CC2)NC(=O)c2cc(OCC(F)(F)F)c(C3CC3)cn2)no1 | mg/mL | 0.056
CCCCCCC(C)(C)c1cc(OC)c(C2=C[C@H]3CC[C@]2(CO)C3(C)C)c(OC)c1 [HU910, reference compound] | mg/mL | 0.128
CCCCCCC(C)(C)c1cc(OC)c([C@H]2C=C(CO)[C@H]3C[C@@H]2C3(C)C)c(OC)c1 [HU308, reference compound] | mg/mL | 0.06

The compound CNC(=O)[C@@H](NC(=O)c1cc(OCC2(C)COC2)c(C2CC2)cn1)C(C)(C)C showed solubility thermodynamic equal to 0.243
